Examples of compounds with documented IC50 follow.
Test system: Strep.pyogenes Leo EC
assay name: Antibacterial activity, concentration required for 50% inhibition
Assay type: cell-based
protocol conditions: Streptococcus pyogenes
// units = µg/mL; emit number, no label

Use these answered entries as a reference point.
# compound CC(=O)S[C@H]1C[C@@]2(C)[C@@H](C[C@@H](O)[C@H]3[C@@]4(C)CC[C@@H](N=[N+]=[N-])[C@@H](C)[C@@H]4CC[C@@]32C)/C1=C(\CCCC(C)C)C(=O)O ; its IC50 = 0.4

Data point: CC(=O)S[C@H]1C[C@@]2(C)[C@@H](C[C@@H](O)[C@H]3[C@@]4(C)CC[C@H](Br)[C@@H](C)[C@@H]4CC[C@@]32C)/C1=C(\CCC=C(C)C)C(=O)O ; IC50 = 0.32

Here is another compound to look at.
IC50 reading for CC(C)CCC/C(C(=O)O)=C1/[C@@H](SC(=O)c2ccccc2)C[C@@]2(C)[C@H]1C[C@@H](O)[C@H]1[C@@]3(C)CC[C@@H](O)[C@@H](C)[C@@H]3CC[C@@]12C : 0.2
